target or test system: Aiolos (Homo sapiens, UniProt Q96SW2+Q9UKT9)
Construct: Frozen human peripheral blood mononuclear cells (PBMCs) were thawed and treated with DMSO or compound for 24 hours; endogenous in cells; host or cells: human PBMCs (T cells gated CD3+CD20-)
Sequence (Q9UKT9 whole entry): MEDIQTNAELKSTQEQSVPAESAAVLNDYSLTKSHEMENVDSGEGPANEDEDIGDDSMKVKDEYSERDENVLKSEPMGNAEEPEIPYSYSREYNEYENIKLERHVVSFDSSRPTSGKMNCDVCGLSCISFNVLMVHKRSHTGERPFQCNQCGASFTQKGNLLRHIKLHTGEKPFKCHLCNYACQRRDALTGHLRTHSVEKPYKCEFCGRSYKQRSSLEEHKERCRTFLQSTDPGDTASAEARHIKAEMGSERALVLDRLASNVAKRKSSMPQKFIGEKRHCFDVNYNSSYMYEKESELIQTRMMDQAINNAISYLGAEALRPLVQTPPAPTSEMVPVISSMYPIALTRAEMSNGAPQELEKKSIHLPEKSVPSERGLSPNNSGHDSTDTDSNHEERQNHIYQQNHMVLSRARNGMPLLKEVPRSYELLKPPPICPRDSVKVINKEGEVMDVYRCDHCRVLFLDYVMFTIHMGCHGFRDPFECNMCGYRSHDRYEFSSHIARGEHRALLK
Sequence (Q96SW2 whole entry): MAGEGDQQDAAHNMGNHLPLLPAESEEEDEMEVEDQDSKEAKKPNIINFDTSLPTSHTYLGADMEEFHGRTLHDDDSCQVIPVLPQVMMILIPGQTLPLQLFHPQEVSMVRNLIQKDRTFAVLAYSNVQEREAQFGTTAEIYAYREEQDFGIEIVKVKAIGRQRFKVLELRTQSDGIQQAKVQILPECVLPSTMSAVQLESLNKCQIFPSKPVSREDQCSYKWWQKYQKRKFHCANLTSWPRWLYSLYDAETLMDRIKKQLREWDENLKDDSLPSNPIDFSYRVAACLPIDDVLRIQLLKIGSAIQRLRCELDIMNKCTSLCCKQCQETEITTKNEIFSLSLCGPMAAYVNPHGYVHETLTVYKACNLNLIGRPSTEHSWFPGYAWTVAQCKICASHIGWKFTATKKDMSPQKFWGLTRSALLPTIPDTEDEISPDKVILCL
Sequence (Q16531 whole entry partner): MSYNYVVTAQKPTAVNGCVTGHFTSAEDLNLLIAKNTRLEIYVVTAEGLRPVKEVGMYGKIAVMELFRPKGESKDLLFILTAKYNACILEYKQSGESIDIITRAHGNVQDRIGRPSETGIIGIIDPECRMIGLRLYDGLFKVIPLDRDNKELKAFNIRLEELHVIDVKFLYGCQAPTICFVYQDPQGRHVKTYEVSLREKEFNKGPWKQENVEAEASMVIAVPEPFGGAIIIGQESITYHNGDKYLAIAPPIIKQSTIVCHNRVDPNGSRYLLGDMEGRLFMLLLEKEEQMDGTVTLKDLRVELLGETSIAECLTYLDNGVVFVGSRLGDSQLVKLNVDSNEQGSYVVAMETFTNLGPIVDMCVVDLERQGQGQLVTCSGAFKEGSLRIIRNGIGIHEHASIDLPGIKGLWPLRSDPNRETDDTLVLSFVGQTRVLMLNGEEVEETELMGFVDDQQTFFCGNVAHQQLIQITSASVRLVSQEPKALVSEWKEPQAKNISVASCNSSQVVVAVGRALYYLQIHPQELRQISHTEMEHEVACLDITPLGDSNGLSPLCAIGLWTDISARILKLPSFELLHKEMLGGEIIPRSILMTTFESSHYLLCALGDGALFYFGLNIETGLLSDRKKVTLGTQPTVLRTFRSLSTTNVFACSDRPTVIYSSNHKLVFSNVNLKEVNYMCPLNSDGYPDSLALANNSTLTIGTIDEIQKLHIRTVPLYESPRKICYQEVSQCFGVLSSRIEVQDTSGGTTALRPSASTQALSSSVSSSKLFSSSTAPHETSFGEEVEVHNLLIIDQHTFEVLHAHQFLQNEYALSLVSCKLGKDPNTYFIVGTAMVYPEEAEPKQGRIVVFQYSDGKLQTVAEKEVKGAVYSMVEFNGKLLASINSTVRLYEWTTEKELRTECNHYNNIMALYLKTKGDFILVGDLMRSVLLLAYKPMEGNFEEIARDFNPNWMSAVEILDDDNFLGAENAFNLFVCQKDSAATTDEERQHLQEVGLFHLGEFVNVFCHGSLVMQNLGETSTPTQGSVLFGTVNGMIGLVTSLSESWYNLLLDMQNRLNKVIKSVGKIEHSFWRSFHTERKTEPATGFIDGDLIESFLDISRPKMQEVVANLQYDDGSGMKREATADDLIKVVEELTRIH
method summary: Aiolos degradation flow cytometry assay in human PBMCs (T cells)
Type: cell-based
run conditions: 24 hours, T cells (CD3+CD20-), read-out: Aiolos T Cell DC50
Below: a set of entries, each annotated with reported DC50.
measured endpoint: DC50

molecule	target or test system	result
CN1CCN([C@@H]2CCCN(c3cnc(C(N)=O)c(Nc4ccc(C5CCN(C(=O)CCOCCNc6cccc7c6C(=O)N(C6CCC(=O)NC6=O)C7=O)CC5)cc4)n3)C2)C1=O (some centres unmarked)	Aiolos (Homo sapiens, UniProt Q96SW2+Q9UKT9)	< 10 nM
CN1CCN([C@H]2CCCN(c3cnc(C(N)=O)c(Nc4ccc(N5CCN(CC#Cc6cccc7c6CN(C6CCC(=O)NC6=O)C7=O)CC5)cc4)n3)C2)C1=O (some centres unmarked)	Aiolos (Homo sapiens, UniProt Q96SW2+Q9UKT9)	> 1000 nM
CN1CCN([C@@H]2CCCN(c3cnc(C(N)=O)c(Nc4ccc(C5CCN(CC6CCN(c7ccc(OC8CCC(=O)NC8=O)cn7)CC6)CC5)cc4)n3)C2)C1=O (some centres unmarked)	Aiolos (Homo sapiens, UniProt Q96SW2+Q9UKT9)	> 1000 nM
CN1CCN(c2cnc(C(N)=O)c(Nc3ccc(C4CCN(C[C@H]5CCN(c6ccc7c(c6)C(=O)N(C6CCC(=O)NC6=O)C7=O)C5)CC4)cc3)n2)CC1 (some centres unmarked)	Aiolos (Homo sapiens, UniProt Q96SW2+Q9UKT9)	> 1000 nM
CN1CCN([C@@H]2CCCN(c3cnc(C(N)=O)c(Nc4ccc(C5CCN(C6CN(c7ccc8c(c7)C(=O)N(C7CCC(=O)NC7=O)C8=O)C6)CC5)cc4)n3)C2)C1=O (some centres unmarked)	Aiolos (Homo sapiens, UniProt Q96SW2+Q9UKT9)	10 to 1000 nM

----------
Reported DC50 is given for each of the following compounds.
target or test system: BTK (Homo sapiens)
Construct: endogenous in cells; host or cells: TMD8 cells
Sequence (Q06187 whole entry): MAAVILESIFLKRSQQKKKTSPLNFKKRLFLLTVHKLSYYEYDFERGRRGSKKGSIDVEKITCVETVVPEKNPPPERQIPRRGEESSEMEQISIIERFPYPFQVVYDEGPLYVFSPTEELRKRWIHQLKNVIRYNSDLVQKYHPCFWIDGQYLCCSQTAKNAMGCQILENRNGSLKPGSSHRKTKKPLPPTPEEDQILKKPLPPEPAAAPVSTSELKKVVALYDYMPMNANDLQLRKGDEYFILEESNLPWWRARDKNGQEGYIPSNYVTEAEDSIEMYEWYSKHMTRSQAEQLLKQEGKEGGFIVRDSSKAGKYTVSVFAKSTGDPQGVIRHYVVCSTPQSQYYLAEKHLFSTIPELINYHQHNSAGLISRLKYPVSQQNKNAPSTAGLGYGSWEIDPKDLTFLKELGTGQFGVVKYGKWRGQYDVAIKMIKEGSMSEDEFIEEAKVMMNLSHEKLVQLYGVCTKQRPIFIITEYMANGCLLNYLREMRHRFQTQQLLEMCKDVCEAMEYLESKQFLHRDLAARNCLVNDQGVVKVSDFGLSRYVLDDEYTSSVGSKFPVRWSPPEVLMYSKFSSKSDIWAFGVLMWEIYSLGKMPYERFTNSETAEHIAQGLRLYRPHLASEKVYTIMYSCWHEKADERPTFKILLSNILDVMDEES
method summary: Cellular BTK HTRF assay (BTK degradation) in TMD8 cells
Type: cell-based
run conditions: four hours incubation, Total-BTK HTRF relative to DMSO-treated cells

compound	target or test system	DC50
NC(=O)c1ncc(N2CCC[C@@H](CO)C2)nc1Nc1ccc(C2CCN(CC3CCN(c4ccc(NC5CCC(=O)NC5=O)cn4)CC3)CC2)cc1 (stereo partly shown)	BTK (Homo sapiens)	< 5 nM
CN1CCN([C@@H]2CCCN(c3cnc(C(N)=O)c(Nc4ccc(N5CC6CN(CC7CN(c8ccc9c(c8)C(=O)N(C8CCC(=O)NC8=O)C9=O)C7)CC6C5)cc4)n3)C2)C1=O (stereo partly shown)	BTK (Homo sapiens)	< 5 nM
CN1CCN([C@@H]2CCCN(c3cnc(C(N)=O)c(Nc4ccc(C5(C)CCN(C(=O)CN6CCN(CCCc7cccc8c7CN(C7CCC(=O)NC7=O)C8=O)CC6)CC5)cc4)n3)C2)C1=O (stereo partly shown)	BTK (Homo sapiens)	< 5 nM
CNC(C)C(=O)N[C@H](C(=O)N1C[C@@H](NC(=O)CCOCCOCCOCCOCCC(=O)N2CCC(c3ccc(Nc4nc(N5CCC[C@@H](N6CCN(C)C6=O)C5)cnc4C(N)=O)cc3)CC2)C[C@H]1C(=O)N[C@@H]1CCCc2ccccc21)C1CCCCC1 (stereo partly shown)	BTK (Homo sapiens)	> 15 nM
CN1CCN([C@H]2CCCN(c3cnc(C(N)=O)c(Nc4ccc(N5CCCC6(C5)CN(c5ccc7c(c5)C(=O)N(C5CCC(=O)NC5=O)C7=O)C6)cc4)n3)C2)C1=O (stereo partly shown)	BTK (Homo sapiens)	5 to 15 nM
CN1CCN([C@@H]2CCCN(c3cnc(C(N)=O)c(Nc4ccc(N5CCN(C(=O)CCOCCCc6ccc7c(c6)C(=O)N(C6CCC(=O)NC6=O)C7)CC5)cc4)n3)C2)C1=O (stereo partly shown)	BTK (Homo sapiens)	< 5 nM
CN1CCN([C@@H]2CCCN(c3cnc(C(N)=O)c(Nc4ccc(C(=O)NCCOCCOCCOCCNc5cccc6c5C(=O)N(C5CCC(=O)NC5=O)C6=O)cc4)n3)C2)C1=O (stereo partly shown)	BTK (Homo sapiens)	> 15 nM
CN1CCN([C@H]2CCCN(c3cnc(C(N)=O)c(Nc4ccc(N5CCC6(CC5)CN(c5cccc7c5C(=O)N(C5CCC(=O)NC5=O)C7=O)C6)cc4)n3)C2)C1=O (stereo partly shown)	BTK (Homo sapiens)	> 15 nM
Cn1c(N2CCC(CN3CC(c4ccc(Nc5nc(N6CCC[C@H](N7CCCC7=O)C6)cnc5C(N)=O)cc4)C3)CC2)nn(C2CCC(=O)NC2=O)c1=O (stereo partly shown)	BTK (Homo sapiens)	< 5 nM
CN1CCN([C@@H]2CCCN(c3cnc(C(N)=O)c(Nc4ccc(C5CCN(C(=O)CCCCc6cccc7c6CN(C6CCC(=O)NC6=O)C7=O)CC5)cc4)n3)C2)C1=O (stereo partly shown)	BTK (Homo sapiens)	5 to 15 nM
